Experiment: Binding affinity to 5'- FAM-labeled wild type human internal ribosome entry site A RNA G-quadruplex after 5 mins by MST analysis
quantity.name: Kd (µM)
Give the value, in units of µM, as a plain number.

What the record says about `CCN(CC)CCOc1ccc(Nc2nc(-c3ccccc3NC(=O)CCN3CCN(C)CC3)nc3ccccc23)cc1` : Kd is 1.29

----------
Experiment: Inhibition of NT-647 dye-labeled BG4 binding to human wild type internal ribosome entry site A RNA G-quadruplex assessed as BG4 antibody Kd by MST analysis (reference value: 10.8 nM)
quantity.name: Kd (µM)
Report the figure in µM without appending any unit label.

What the record says about `CCN(CC)CCOc1ccc(Nc2nc(-c3ccccc3NC(=O)CCN3CCN(C)CC3)nc3ccccc23)cc1` : Kd is 4.64
